biological target: Sphingosine 1-phosphate receptor 3 (Homo sapiens); experiment: Agonist activity at human SIP3 receptor assessed as calcium mobilization by GeneBLAzer assay
Sequence (Q99500 whole entry): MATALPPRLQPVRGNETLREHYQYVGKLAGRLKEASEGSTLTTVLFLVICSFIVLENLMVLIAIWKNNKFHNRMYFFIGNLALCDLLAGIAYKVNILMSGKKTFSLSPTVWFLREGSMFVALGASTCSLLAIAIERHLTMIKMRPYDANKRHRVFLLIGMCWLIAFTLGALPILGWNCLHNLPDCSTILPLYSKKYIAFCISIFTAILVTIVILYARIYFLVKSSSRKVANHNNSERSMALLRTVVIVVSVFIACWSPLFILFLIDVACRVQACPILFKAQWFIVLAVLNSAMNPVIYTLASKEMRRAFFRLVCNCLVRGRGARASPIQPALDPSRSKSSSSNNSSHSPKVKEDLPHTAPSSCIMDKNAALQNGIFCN
pEC50: −log10 of the molar value.
In this section we review reported pEC50 values for a set of compounds.

- CC(C)Oc1ccc(-c2nc3cc(C(=O)O)cnc3o2)cc1Cl: < 5.00
- O=C(O)CCCCCc1cnc2sc(-c3ccc(-c4ccccc4)c(C(F)(F)F)c3)nc2c1: < 5.00
- O=C(O)CCCCCc1ccn2nc(-c3ccc(-c4ccccc4)c(C(F)(F)F)c3)nc2c1: < 5.00
- O=C(O)CCCCCc1cn2cc(-c3ccc(-c4ccccc4)c(C(F)(F)F)c3)nc2s1: < 5.00

Next compound, pEC50 to be filled in.
Write down pEC50 measured for item O=C(O)C1CCN(CCCc2ccc3oc(-c4ccc(-c5ccccc5)c(C(F)(F)F)c4)nc3c2)CC1
6.30
